test system: mAb 8i10; format: binding, human
observable: Binding activity to truncated M2 peptides, ELISA absorbance at 450 nm, 8i10
Just the number, please, no unit after it.

Below, each entry is followed by its recorded Binding activity to truncated M2 peptides, ELISA absorbance at 450 nm, 8i10 result.
substance="SLLTEVETPIRN [NM12]" value=0.10
substance="SLLTEVE [NM7]" value=0.10
substance="SLLTEVETPI [NM10]" value=0.10
substance="SLLTEVET [NM8]" value=0.10
substance="TPIRNEWGCRCNDSSD [CM16]" value=0.13

Exam item: Kindly indicate its recorded Binding activity to truncated M2 peptides, ELISA absorbance at 450 nm, 8i10. Item: SLLTEVETPIRNE [NM13]
Marked response: 0.11

Exam item: Kindly indicate its recorded Binding activity to truncated M2 peptides, ELISA absorbance at 450 nm, 8i10. Item: PIRNEWGCRCNDSSD [CM15]
Marked response: 0.12

Source: patent US8932597B2
